Taken from patent US20240158446A1.

# Kd annotations
Target Desc: GDP-bound KRAS wild-type protein (Homo sapiens, UniProt P01116)
Sequence (P01116 whole entry): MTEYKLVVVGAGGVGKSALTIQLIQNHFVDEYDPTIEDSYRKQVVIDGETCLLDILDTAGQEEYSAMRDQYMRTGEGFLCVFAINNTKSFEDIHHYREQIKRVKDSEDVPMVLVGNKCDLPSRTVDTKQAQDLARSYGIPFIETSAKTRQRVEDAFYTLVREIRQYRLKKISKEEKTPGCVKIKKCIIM
Method Notes: Binding to KRAS by surface plasmon resonance (SPR), Single Cycle Kinetics
Applied Conditions: SPR, Single Cycle Kinetics, 1:1 binding model; GDP-bound KRAS wild-type protein; read-out: KRAS KD
Parameter Measured: Kd (nM)

[[record]]
compound = "CCO[C@@H]1C[C@H]2C(=O)NC3(CCC3)C(=O)N(C)[C@@H](C3CCCC3)C(=O)N(C)[C@H](C(=O)N(C)C)CC(=O)N(C)[C@@H](CC3CCCC3)C(=O)N[C@@H]([C@@H](C)CC)C(=O)N(C)CC(=O)N(C)[C@H]3C/C=C\\CCN(C3=O)[C@@H](Cc3ccc(C(F)(F)F)cc3)C(=O)N(C)CC(=O)N[C@@H](CCc3cc(F)c(Cl)c(F)c3)C(=O)N2C1 [PP1264]"
obs_value = 0.37

[[record]]
compound = "CCO[C@@H]1C[C@H]2C(=O)NC3(CCC3)C(=O)N(C)[C@@H](C3CCCC3)C(=O)N(C)[C@H](C(=O)N3CCOCC3)CC(=O)N(C)[C@@H](CC)C(=O)N[C@@H]([C@@H](C)CC)C(=O)N(C)CC(=O)N(C)[C@H]3C[C@@H](C)[C@@H](C)CN(C3=O)[C@@H](Cc3ccc(C(F)(F)F)cc3)C(=O)N(C)CC(=O)N[C@@H](CCc3cc(F)c(C(F)(F)F)c(F)c3)C(=O)N2C1 [PP1354]"
obs_value = 0.056

[[record]]
compound = "CC[C@H](C)[C@@H]1NC(=O)[C@H](CC)N(C)C(=O)C[C@@H](C(=O)N(C)C)N(C)C(=O)[C@H](C2CCCC2)N(C)C(=O)C2(CCC2)NC(=O)[C@@H]2C[C@@H](C(F)(F)F)CN2C(=O)[C@H](CCc2cc(F)c(C(F)(F)F)c(F)c2)NC(=O)CN(C)C(=O)[C@H](CC2CCC(F)(F)CC2)N2CC/C=C\\C[C@@H](C2=O)N(C)C(=O)CN(C)C1=O [PP1451]"
obs_value = 0.14

[[record]]
compound = "CCO[C@@H]1C[C@H]2C(=O)NC3(CCC3)C(=O)N(C)[C@@H](C3CCCC3)C(=O)N(C)[C@H](C(=O)N3CCCCC3)CC(=O)N(C)[C@@H](C)C(=O)N[C@@H]([C@@H](C)CC)C(=O)N(C)CC(=O)N(C)[C@H]3C/C=C\\CCN(C3=O)[C@@H](Cc3ccc(C(F)(F)F)cc3)C(=O)N(C)CC(=O)N[C@@H](CCc3cc(F)c(C(F)(F)F)c(F)c3)C(=O)N2C1 [PP1292]"
obs_value = 0.16

[[record]]
compound = "CCO[C@@H]1C[C@H]2C(=O)NC3(CCC3)C(=O)N(C)[C@@H](C3CCCC3)C(=O)N(C)[C@H](C(=O)N3CCOCC3)CC(=O)N(C)[C@@H](CC3CC3)C(=O)N[C@@H]([C@@H](C)CC)C(=O)N(C)CC(=O)N(C)[C@H]3C/C=C\\CCN(C3=O)[C@@H](Cc3ccc(C(F)(F)F)cc3)C(=O)N(C)CC(=O)N[C@@H](CCc3cc(F)c(C(F)(F)F)c(F)c3)C(=O)N2C1 [PP1283]"
obs_value = 0.2

[[record]]
compound = "CCO[C@@H]1C[C@H]2C(=O)NC3(CCC3)C(=O)N(C)[C@@H](C3CCCC3)C(=O)N(C)[C@H](C(=O)N(C)CCOC)CC(=O)N(C)[C@@H](CC(C)C)C(=O)N[C@@H]([C@@H](C)CC)C(=O)N(C)CC(=O)N(C)[C@H]3C/C=C\\CCN(C3=O)[C@@H](Cc3ccc(C(F)(F)F)cc3)C(=O)N(C)CC(=O)N[C@@H](CCc3ccc(Cl)c(Cl)c3)C(=O)N2C1 [PP1326]"
obs_value = 0.27

[[record]]
compound = "CCO[C@@H]1C[C@H]2C(=O)NC3(CCC3)C(=O)N(C)[C@@H](C3CCCC3)C(=O)N(C)[C@H](C(=O)N3CCCC3)CC(=O)N(C)[C@@H](CC3CC3)C(=O)N[C@@H]([C@@H](C)CC)C(=O)N(C)CC(=O)N(C)[C@H]3C/C=C\\CCN(C3=O)[C@@H](Cc3ccc(C)cc3)C(=O)N(C)CC(=O)N[C@@H](CCc3cc(F)c(C(F)(F)F)c(F)c3)C(=O)N2C1 [PP1409]"
obs_value = 0.21

[[record]]
compound = "CCO[C@@H]1C[C@H]2C(=O)NC3(CCC3)C(=O)N(C)[C@@H](C3CCCC3)C(=O)N(C)[C@H](C(=O)N(C)C)CC(=O)N(C)[C@@H](CC3CC3)C(=O)N[C@@H]([C@@H](C)CC)C(=O)N(C)CC(=O)N(C)[C@H]3C/C=C\\CCN(C3=O)[C@@H](Cc3ccc(F)cc3)C(=O)N(C)CC(=O)N[C@@H](CCc3ccc(Cl)c(Cl)c3)C(=O)N2C1 [PP1478]"
obs_value = 0.34

[[record]]
compound = "CC[C@H](C)[C@@H]1NC(=O)[C@H](CC2CC2)N(C)C(=O)C[C@@H](C(=O)N(C)CC)N(C)C(=O)[C@H](C2CCCC2)N(C)C(=O)C2(CCC2)NC(=O)[C@@H]2C[C@H](C)CN2C(=O)[C@H](CCc2cc(F)c(C(F)(F)F)c(F)c2)NC(=O)CN(C)C(=O)[C@H](Cc2ccc(C(F)(F)F)cc2)N2CC/C=C\\C[C@@H](C2=O)N(C)C(=O)CN(C)C1=O [PP1537]"
obs_value = 0.067

[[record]]
compound = "CCO[C@@H]1C[C@H]2C(=O)NC3(CCCC3)C(=O)N(C)[C@@H](C(CC)CC)C(=O)N(C)[C@H](C(=O)N3CCCC3)CC(=O)N(C)[C@@H](COC)C(=O)N[C@@H]([C@@H](C)CC)C(=O)N(C)CC(=O)N(C)[C@H]3C/C=C\\CCN(C3=O)[C@@H](CC3CCC(F)(F)CC3)C(=O)N(C)CC(=O)N[C@@H](CCc3cc(F)c(C(F)(F)F)c(F)c3)C(=O)N2C1 [PP1441]"
obs_value = 0.7

[[record]]
compound = "CCO[C@@H]1C[C@H]2C(=O)NC3(CCC3)C(=O)N(C)[C@@H](C3CCCC3)C(=O)N(C)[C@H](C(=O)N(C)C)CC(=O)N(C)[C@@H](CC3CC3)C(=O)N[C@@H]([C@@H](C)CC)C(=O)N(C)CC(=O)N(C)[C@H]3C/C=C\\CCN(C3=O)[C@@H](Cc3ccc(C(F)(F)F)cc3)C(=O)N(C)CC(=O)N[C@@H](CCc3ccc(C(F)(F)F)c(OC)c3)C(=O)N2C1 [PP1247]"
obs_value = 0.046

